Sourced from PubChem BioAssay (NCI)

Listing of entries alongside the reported growth.
System: A498 renal
assayExplanation: NCI-60 one-dose screen, 48 h (100 = growth as untreated, 0 = no growth, -100 = all killed)
studyConditions: 10 µM unless noted
Compounds without any hit were thinned out: in the full panel of roughly 83,000, 20% have a hit.
quantity: growth (%)

# compound, targetSystem, numericResult
measured = [
    ("O=C1c2c(c3c4cc(F)ccc4oc3c3[nH]c4ccc(Br)cc4c23)C(=O)N1O", "A498 renal", 119),
    ("COc1ccc(NC(=O)Nc2ccc(OCc3ccc(F)cc3)cc2)cc1", "A498 renal", 80.3),
    ("COc1ccc(C2CC(c3ccc(S(=O)(=O)NCCNc4nc(Nc5ccc(F)cc5)nc(N(C)C)n4)cc3)=Nc3c(N)nc(N)nc3N2)cc1 (centres undefined)", "A498 renal", 93.6),
    ("CC1CN(c2oc(-c3ccc([N+](=O)[O-])cc3)nc2C#N)CC(C)O1 (centres undefined)", "A498 renal", 97.2),
    ("Cc1sc2c(c1C)C(c1ccc(Cl)cc1)=N[C@@H](CC(=O)NCCCCCNC(=O)COc1ccc(C3CCC(=O)NC3=O)cc1)c1nnc(C)n1-2 (some centres undefined)", "A498 renal", 48.4),
    ("COC(OC)C1=C(C)OC(N)=C(C#N)C12C(=O)Nc1ccccc12 (centres undefined)", "A498 renal", 125),
    ("Cc1ccc(C2CC(c3ccc(S(=O)(=O)NCCNc4nc(Nc5ccc(F)cc5)nc(N(C)C)n4)cc3)=Nc3c(N)nc(N)nc3N2)cc1 (centres undefined)", "A498 renal", 89.2),
    ("COc1ccc(C(=O)/C=C/c2cc3c(cc2Br)OCO3)cc1S(N)(=O)=O", "A498 renal", 88.7),
    ("O=c1oc2ccccc2cc1-c1csc(N=Nc2c(O)[nH]c3ccc(Cl)cc23)n1", "A498 renal", 98.6),
]

----------
System: 786-0 renal
assayExplanation: NCI-60 one-dose screen, 48 h
studyConditions: 10 µM unless noted
About 83,000 compounds went through this panel and 20% of them were active in at least one assay; those are over-represented in the sample as a whole. Active and inactive are the calls of the source. The calls were made as follows: active = growth percent below 10; inactive = the rest.
Outcome codes: 1.0 = active, 0.0 = inactive

# compoundString, class
data = [
    ("N=C1N=C(SCc2nc3ccccc3[nH]2)NC(=O)/C1=C/c1ccc(Cl)cc1", 0.0),
    ("COc1ccc(C(=O)/C=C/c2cccc(Br)c2)cc1S(N)(=O)=O", 1.0),
    ("C/C(=N\\N=C\\c1cc([N+](=O)[O-])ccc1Cl)c1ccc2c(c1)Nc1ccccc1S2", 0.0),
    ("O=C(N=Nc1c(O)[nH]c2ccc(Cl)cc12)c1ccc2nc(-c3ccccc3)[nH]c2c1", 0.0),
    ("CC(C)CSc1nc(NCCc2c[nH]c3ccccc23)c(C#N)c(-c2ccc(F)cc2)n1", 0.0),
]

----------
Test system: U251 CNS
assayExplanation: NCI-60 one-dose screen, 48 h
studyConditions: 10 µM unless noted
The panel holds about 83,000 compounds, 20% with a hit somewhere; the sample as a whole holds those more often. Calls of active or inactive are those of the source. How the source made its calls: active means growth percent below 10; inactive means the rest.
Outcome codes: 1 = active, 0 = inactive

# molecule, class
measured = [
    ("CC(C)CSc1nc(NCCc2c[nH]c3ccccc23)c(C#N)c(-c2ccccc2)n1", 0),
    ("Cn1cc(-c2cc3nc(-c4c[nH]c5ccc(Br)cc45)cc(N)n3n2)c2ccccc21", 1),
    ("COc1ccc(/C=C/c2nc3ccccc3c(=O)n2CC(=O)Nc2ccc(Cl)cc2)cc1", 0),
    ("CCOC(=O)C(N=Nc1ccc(S(=O)(=O)N=C(N)N)cc1)C(C)=O (stereo not drawn)", 0),
    ("C[C@H]1CN(C(=O)c2ccc3c(NNC(=O)c4ccncn4)nc4cc(F)c(F)cc4n23)CCN1", 0),
    ("C=C1CC[C@@H]2[C@]3(C)COC(c4cn[nH]c4-c4ccc(C)cc4)O[C@@H]3CC[C@@]2(C)[C@@H]1C/C=C1/C(=O)OCC1O (stereo partly drawn)", 1),
    ("Brc1ccc(-c2n(Cc3ccc4ccccc4c3)c(-c3ccccc3)c(-c3ccccc3)[n+]2Cc2ccc3ccccc3c2)cc1", 1),
    ("COC1=C[C@]23CCC(=O)N2CCc2cc4c(cc2[C@@H]3[C@@H]1OC(=O)[C@H](C)O)OCO4", 1),
]

----------
Tested on: OVCAR-3 ovarian
assayExplanation: NCI-60 one-dose screen, 48 h (100 = growth as untreated, 0 = no growth, -100 = all killed)
studyConditions: 10 µM unless noted
Compounds without any hit were thinned out: in the full panel of roughly 83,000, 20% have a hit.
Classification field: enter Y for growth values not below 60%, N for values below it.

# compound, class
records = [
    ("C=C1CC[C@@H]2[C@]3(C)COC(c4cn(-c5ccccc5)nc4-c4cccc([N+](=O)[O-])c4)O[C@@H]3CC[C@@]2(C)[C@@H]1C/C=C1/C(=O)OC[C@H]1O (stereo partly drawn)", "N"),
    ("COc1cc(/C=C/C(=O)c2ccc(C)cc2)ccc1Oc1nc(Nc2ccc(F)cc2)nc(N(C)C)n1", "N"),
    ("COc1cc2oc(-c3cccc(C(=O)Nc4ccc(Cl)cc4)c3)cc(=O)c2c(OCC(=O)N[C@@H](Cc2ccccc2)C(=O)O)c1OC", "Y"),
    ("COc1cc(OC)cc(C(=O)Nc2cccc(-c3cn(-c4ccc(S(N)(=O)=O)cc4)nn3)c2)c1", "Y"),
    ("CN(C)c1ccnc(CNCCSC2(c3ccc(C(F)(F)F)cc3)c3ccccc3C=Cc3ccccc32)c1", "N"),
    ("CC(=O)OC[C@@]1(C)C2CC[C@]3(C)C(CC=C4C5CC(C)(C)CC[C@]5(C(=O)Nc5ccc(F)cc5)CC[C@]43C)[C@@]2(C)C[C@@H](OC(C)=O)[C@@H]1OC(C)=O (stereo partly drawn)", "N"),
    ("C#CCOc1ccc(/C=N/Nc2nc(-c3cc4cc(OC)ccc4oc3=O)cs2)cc1OC", "Y"),
    ("O=C(c1ccccc1)C(c1c[nH]c2ccccc12)c1c[nH]c2ccccc12", "N"),
]

----------
Listing of entries alongside the reported growth.
Tested on: MDA-MB-468 breast
assayExplanation: NCI-60 one-dose screen, 48 h (100 = growth as untreated, 0 = no growth, -100 = all killed)
studyConditions: 10 µM unless noted
The panel holds about 83,000 compounds, 20% with a hit somewhere; the sample as a whole holds those more often.

# compound, targetSystem, unit, growth
measured = [
    ("COc1ccc(C(=O)/C=C/c2ccc(OCc3ccc(F)cc3)c(OC)c2)cc1OC", "MDA-MB-468 breast", "%", 8.91),
    ("COc1ccc(-c2c(Nn3cnnn3)no[n+]2[O-])cc1", "MDA-MB-468 breast", "%", 46.3),
    ("C/C(=N\\N=C1/C(=O)Nc2ccc(Cl)cc21)c1ccc2c(c1)Nc1ccccc1S2", "MDA-MB-468 breast", "%", 2.73),
    ("C=C1CC[C@@H]2[C@]3(C)COC(c4cn[nH]c4-c4ccccc4)O[C@@H]3CC[C@@]2(C)[C@@H]1C/C=C1/C(=O)OCC1O (stereo partly drawn)", "MDA-MB-468 breast", "%", -37),
    ("O=C(NNc1nc2cc(F)ccc2n2c(CN3CC4CNCC4C3)ccc12)c1ccncn1 (stereo not drawn)", "MDA-MB-468 breast", "%", -3.86),
    ("CC12CC[C@@H]3[C@]4(C)COC(c5cn[nH]c5-c5ccc(Cl)cc5)O[C@@H]4CC[C@@]3(C)[C@@H]1CC(C1=CCOC1=O)O2 (stereo partly drawn)", "MDA-MB-468 breast", "%", 0.753),
    ("O=C(N/N=C/c1ccc(-c2ccc(O)cc2)s1)c1[nH]c2ccc(Br)cc2c1-c1ccccc1", "MDA-MB-468 breast", "%", 5.96),
    ("CN(C)c1nc(NCCNS(=O)(=O)c2ccc(C3=Nc4c(N)nc(N)nc4NC(c4ccc(Cl)cc4)C3)cc2)nc(Nc2ccc(F)cc2)n1 (stereo not drawn)", "MDA-MB-468 breast", "%", -35.5),
    ("COc1ccc(/C=C/c2nc3ccccc3c(=O)n2CC(=O)Nc2ccc(OC)cc2)cc1", "MDA-MB-468 breast", "%", 91.1),
    ("Cn1cc(-c2cc3nc(-c4c[nH]c5ccc(Br)cc45)cc(N)n3n2)c2ccccc21", "MDA-MB-468 breast", "%", -70.3),
    ("Cc1ccccc1[C@H]1C(C(=O)c2ccc(Cl)cc2)C2(N[C@@H]1c1ccccc1)C(=O)Nc1ccccc12 (stereo partly drawn)", "MDA-MB-468 breast", "%", -25.6),
    ("CCCCCCCCc1ccc(S(=O)(=O)Nc2ccc(CC)cc2C(=O)O)cc1", "MDA-MB-468 breast", "%", 82.2),
    ("Cc1c(C(=O)NNC(=O)c2ccc(Cl)cc2)nnn1-c1ccc(Cl)cc1", "MDA-MB-468 breast", "%", 89.4),
    ("O=C1CC(Sc2n[nH]c(-c3ccncc3)n2)C(=O)N1c1ccc(Br)cc1 (stereo not drawn)", "MDA-MB-468 breast", "%", 99.3),
    ("Cc1c(C(=O)NNC(=O)Nc2ccc(Cl)cc2)nnn1-c1ccc(Br)cc1", "MDA-MB-468 breast", "%", 91),
    ("Nc1nc(C(F)(F)F)cs1", "MDA-MB-468 breast", "%", 101),
    ("COCOc1cc2c(=O)c(C)c(C(=O)N[C@@H](Cc3ccccc3)C(O)C(=O)NCc3ccccc3)oc2cc1OC (stereo partly drawn)", "MDA-MB-468 breast", "%", 13.9),
    ("COc1cc2oc(-c3cccc(C(=O)Nc4ccc(Cl)cc4)c3)cc(=O)c2c(OCCNC(=O)[C@@H](N)CCC(=O)O)c1OC", "MDA-MB-468 breast", "%", 74.5),
]
